Target: Fibroblast activation protein (FAP), recombinant human, carrier-free (BioLegend) (Homo sapiens)
Test: CE-LIF (NECEEM)
Details: lowest affinity of the five; exact value only in figure; CE-LIF/NECEEM: buffer for Kd not stated, CE separation (SELEX) 20 kV, 25 C; specificity: 10 min at 37 C, PBS pH 7.2 as control; AuNP assay: room temperature …
reported metric: Kd

Given AGCAGCACAGAGGTCAGATGGCCACATTAGTCTCACCACTACCTGCGTACCTACCGCCGCCCTATGCGTGCTACCGTGAA [AptFAP-A2] , respond with its Kd.
> 1000 nM
